This collection of values is drawn from PubChem BioAssay (NCI).

assay: NCI Yeast Anticancer Drug Screen. Data for the bub3 strain (AID 167); settings: S. cerevisiae bub3 mutant strain, at 50.0 µM, stronger effect = higher value
About 79,000 compounds went through this panel and 15% of them were active in at least one assay; those are over-represented in the sample as a whole. Active and inactive are the calls of the source. Rule as the data show it: active = growth inhibition above about 70%; inactive = the rest.
RECORDED METRIC: growth inhibition

Sample answers from the record:
Oc1c(Cl)cc(Cl)cc1CN(Cc1cc(Cl)cc(Cl)c1O)c1ccccc1 :: 27.1% (inactive)
CN(CCc1ccccn1)c1ccc2c(c1)C(=O)c1ccccc1-2 :: -2.7% (inactive)
CCS(=O)(=O)C(S(C)(=O)=O)S(=O)(=O)C(C)C (stereo unspecified) :: 26.8% (inactive)
O=C(O)C(CCOc1ccccc1)CCOc1ccccc1 :: -9.15% (inactive)
CC(C)N(CC(=O)NC(=O)c1ccccc1)Cc1ccccc1 :: -1.5% (inactive)

Task: What growth inhibition value was documented for this molecule, CN(C)C(=O)Sc1ccc(O)cc1 ?
Result: 12.9% (inactive)

Task: Which growth inhibition is listed for Cc1ccc(NC(=O)NCCCCCCNC(=O)Nc2ccc(C)cc2)cc1 ?
Result: -14.4% (inactive)

Task: Need growth inhibition, item C[Si](C)(C)/C(=N/Nc1ccc([N+](=O)[O-])cc1[N+](=O)[O-])c1ccccc1
Result: -7.9% (inactive)

Task: Given COC(=O)c1ccc(NC(=O)c2cc(OC)c(OC)c(OC)c2)cc1 , state its recorded growth inhibition.
Result: -9% (inactive)

Task: What value of growth inhibition has been reported for the following molecule? CC(C)=C(OC(=O)c1ccccc1)C(C)(CC(C)(C)C)C(C)(C)C (stereo unspecified)
Result: -26.5% (inactive)

Task: Returns the measured growth inhibition for the input molecule. Input: CC(=O)OCCC(=O)Nc1cc([N+](=O)[O-])ccc1OCc1ccccc1
Result: 3.65% (inactive)

###

# growth inhibition per entry
experiment: NCI Yeast Anticancer Drug Screen. Data for the cln2 rad14 strain (AID 165);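 also: 0% = growth equal to vehicle treated cultures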; settings: S. cerevisiae cln2 rad14 strain, at 50.0 µM, stronger effect = higher value
Compounds without any hit were thinned out: in the full panel of roughly 79,000, 15% have a hit.
Could you give me the number in %? Just the number is fine.

// known answers, use as guide
c1ccc(C2=NC3CCCCC3S2)cc1 (configuration not stated) :: -32.3
COC(=O)/C=C/c1c(=O)c(C(=O)OC)cn2cnc3nc[nH]c3c12 :: -13.3

Task: Can you look up the measured growth inhibition of N/C(=N/N=C/C1CCCCC1)NO for me?
Result: 3.4

Task: Could you share which growth inhibition value was measured for c1ccc(CSc2ncnc3oc(-c4ccccc4)nc23)cc1 ?
Result: 11.2

Task: Please look up its growth inhibition: CO[C@H]1C[C@H]2[C@@H]3CCC4=CC(=O)CC[C@]4(C)[C@H]3CC[C@]2(C)[C@@]1(O)C(=O)CO
Result: -14.9

Task: Name the reported growth inhibition value associated with the compound C[C@@H]1CN(c2ccccc2)C[C@H](C)OS(=O)O1 (some centres not stated)
Result: -16.6

Task: Any idea what its growth inhibition is? The compound is OC1CCC(c2ccccc2)CC1 (configuration not stated)
Result: 15.7

Task: Please look up its growth inhibition: CCOC(=O)c1cnc2cc3c(cc2c1Nc1ccc2c(c1)OCO2)OCO3
Result: 3.6

Task: Param item = CCOC(=O)CNCc1cccc(Cl)c1 ; retrieve measured growth inhibition.
Result: -0.8

Task: Need growth inhibition of O=[N+]([O-])c1ccn(O)c(=Nc2ccccc2)c1 , thanks.
Result: -32.5

Task: Please look up its growth inhibition: CCOC1NC(=O)c2ccccc21 (configuration not stated)
Result: 22.2

Task: // lookup growth inhibition for COC(=O)c1cccc2cnccc12
Result: -48
